Test system: MYC4
TEST_DETAILS: Split-ubiquitin assay, MYC4 as bait
Assay type: cell-based, Arabidopsis thaliana
EXPERIMENTAL_CONTEXT: yeast, SD-AHLW growth

{"columns": ["MOLECULE", "interaction with MYC4 (in words)"],
 "data": [
  ["N191Q: mutated MYB29 (AAs 120-222); MIM sequence - S TS KL LQK VA ARA SS - (protein, left off: NubG and FRB (from the vector pFRB), end not stated, kept) GIDPVTHKPLAYDSNPDEQSQSGSISPKSLPPSSSKNVPEITSSDETPKYDASLSSKKRCFKRSSSTSKLLQKVAARASSMGTILGASIEGTLISSTPLSSCL", "weakly interacting"],
  ["L190F: mutated MYB29 (AAs 120-222); MIM sequence - S TS KL FNK VA ARA SS - (protein, left off: NubG and FRB (from the vector pFRB), end not stated, kept) GIDPVTHKPLAYDSNPDEQSQSGSISPKSLPPSSSKNVPEITSSDETPKYDASLSSKKRCFKRSSSTSKLFNKVAARASSMGTILGASIEGTLISSTPLSSCL", "weakly interacting"],
  ["N191L: mutated MYB29 (AAs 120-222); MIM sequence - S TS KL LLK VA ARA SS - (protein, left off: NubG and FRB (from the vector pFRB), end not stated, kept) GIDPVTHKPLAYDSNPDEQSQSGSISPKSLPPSSSKNVPEITSSDETPKYDASLSSKKRCFKRSSSTSKLLLKVAARASSMGTILGASIEGTLISSTPLSSCL", "weakly interacting"]
]}

Origin of measurements: paper PMC6765112
